# credit: ChEMBL document CHEMBL1157348

Molecular target: Histamine H3 receptor (Rattus norvegicus)
Sequence (Q9QYN8 whole entry): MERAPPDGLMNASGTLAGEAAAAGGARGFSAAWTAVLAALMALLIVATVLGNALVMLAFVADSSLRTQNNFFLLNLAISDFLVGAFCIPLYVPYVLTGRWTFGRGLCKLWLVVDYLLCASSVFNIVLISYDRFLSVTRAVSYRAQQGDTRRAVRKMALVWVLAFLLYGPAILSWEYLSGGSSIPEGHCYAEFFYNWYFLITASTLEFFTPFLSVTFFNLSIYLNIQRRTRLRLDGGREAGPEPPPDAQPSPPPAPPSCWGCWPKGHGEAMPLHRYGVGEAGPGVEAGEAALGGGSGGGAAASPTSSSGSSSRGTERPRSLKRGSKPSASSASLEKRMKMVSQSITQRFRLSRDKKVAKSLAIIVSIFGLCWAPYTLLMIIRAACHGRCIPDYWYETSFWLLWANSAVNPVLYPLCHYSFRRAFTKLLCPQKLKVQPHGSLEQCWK
Assay: Displacement of [3H]NAMH from histamine H3 receptor in rat cortex
Details: read-out: Ki
Values of Ki strictly less than 40 nM map to y, and values of at least 40 nM map to n.

{"columns": ["Substance smiles", "Label"],
 "data": [
  ["CC(=O)N[C@@H](Cc1ccccc1)C(=O)N(C)[C@H]1CC[C@@]2(C)C(=CC[C@H]3[C@@H]4CC[C@@H]5[C@H](C)N(C)C[C@@]54CC[C@@H]32)C1", "y"],
  ["CN[C@@H](C(=O)N(C)[C@H]1CC[C@@]2(C)C(=CC[C@H]3[C@@H]4CC[C@@H]5[C@H](C)N(C)C[C@@]54CC[C@@H]32)C1)C(C)C", "y"],
  ["CC[C@H](C)[C@H](N)C(=O)N(C)[C@H]1CC[C@@]2(C)C(=CC[C@H]3[C@@H]4CC[C@@H]5[C@H](C)N(C)C[C@@]54CC[C@@H]32)C1", "y"],
  ["C[C@H]1[C@H]2CC[C@H]3[C@@H]4CC=C5C[C@@H](N(C)C(=O)c6ccncc6)CC[C@]5(C)[C@H]4CC[C@]23CN1C", "n"],
  ["C[C@H]1[C@H]2CC[C@H]3[C@@H]4CC=C5C[C@@H](N(C)S(=O)(=O)c6ccccc6)CC[C@]5(C)[C@H]4CC[C@]23CN1C", "n"],
  ["C[C@H]1[C@H]2CC[C@H]3[C@@H]4CC=C5C[C@@H](N(C)C(=O)C6CC6)CC[C@]5(C)[C@H]4CC[C@]23CN1C", "n"],
  ["C[C@H]1[C@H]2CC[C@H]3[C@@H]4CC=C5C[C@@H](N(C)S(=O)(=O)c6ccc(C#N)cc6)CC[C@]5(C)[C@H]4CC[C@]23CN1C", "n"],
  ["CC(=O)N(C)[C@H]1CC[C@@]2(C)C(=CC[C@H]3[C@@H]4CC[C@@H]5[C@H](C)N(C)C[C@@]54CC[C@@H]32)C1", "n"],
  ["C[C@H]1[C@H]2CC[C@H]3[C@@H]4CC=C5C[C@@H](N(C)C(=O)c6ccc(C#N)cc6)CC[C@]5(C)[C@H]4CC[C@]23CN1C", "n"],
  ["C[C@H]1[C@H]2CC[C@H]3[C@@H]4CC=C5C[C@@H](N(C)C(=O)c6ccccc6)CC[C@]5(C)[C@H]4CC[C@]23CN1C", "y"],
  ["C[C@H]1[C@H]2CC[C@H]3[C@@H]4CC=C5C[C@@H](N(C)C(=O)Cc6cccs6)CC[C@]5(C)[C@H]4CC[C@]23CN1C", "y"],
  ["CC(=O)N[C@@H](CC(C)C)C(=O)N(C)[C@H]1CC[C@@]2(C)C(=CC[C@H]3[C@@H]4CC[C@@H]5[C@H](C)N(C)C[C@@]54CC[C@@H]32)C1", "y"]
]}
